Recorded IC50 values for a group of molecules are listed next.
Target: MAPK14 (human) (UniProt Q16539)
Sequence (Q16539 whole entry, looked up): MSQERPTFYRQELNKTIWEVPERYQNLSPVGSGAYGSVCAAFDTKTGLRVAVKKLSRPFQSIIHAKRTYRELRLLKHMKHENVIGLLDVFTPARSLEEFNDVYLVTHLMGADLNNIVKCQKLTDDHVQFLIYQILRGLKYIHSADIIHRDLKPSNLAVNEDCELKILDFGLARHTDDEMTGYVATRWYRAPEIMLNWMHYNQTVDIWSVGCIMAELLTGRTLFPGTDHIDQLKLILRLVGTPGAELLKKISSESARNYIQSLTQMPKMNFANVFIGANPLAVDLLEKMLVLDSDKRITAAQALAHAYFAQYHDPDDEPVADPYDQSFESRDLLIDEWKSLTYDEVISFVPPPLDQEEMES
Experiment: Inhibition of TNF-alpha Release from PBMC
The response must be a number in nM with no trailing unit.

// known answers, use as guide
[
  {
    "Smiles repr": "C[C@H](Nc1nccc(-c2c(-c3ccccc3)nc3nc(N)ccn23)n1)c1ccccc1",
    "Test target": "MAPK14 (human) (UniProt Q16539)",
    "Units label": "nM",
    "IC50": 0.4
  },
  {
    "Smiles repr": "C[C@H](Nc1nccc(-c2c(-c3ccc(F)cc3)nc3nc(N)ccn23)n1)C1CCCCC1",
    "Test target": "MAPK14 (human) (UniProt Q16539)",
    "Units label": "nM",
    "IC50": 1
  },
  {
    "Smiles repr": "CS(=O)(=O)c1nccc(-c2c(-c3ccccc3)nc3nc(N)ccn23)n1",
    "Test target": "MAPK14 (human) (UniProt Q16539)",
    "Units label": "nM",
    "IC50": 3410
  },
  {
    "Smiles repr": "Nc1ccn2c(-c3ccnc4ccccc34)c(-c3ccc(F)cc3)nc2n1",
    "Test target": "MAPK14 (human) (UniProt Q16539)",
    "Units label": "nM",
    "IC50": 333
  }
]

As a next step, examine the molecule that follows.
Exercise: Query IC50 on MAPK14 (human) (UniProt Q16539) for `Nc1ccn2c(-c3ccncc3)c(-c3cccc(F)c3)nc2n1`
Solution: 55

* * *

Biological target: MAPK14 (human) (UniProt Q16539)
Experiment: Inhibition of TNF-alpha Release from PBMC
Response field label takes condition met when IC50 is strictly below 30 nM and condition not met in all other cases.

Reference set, count: 2
[
  {
    "Smiles repr": "COc1ccc(CNc2nccc(-c3c(-c4ccccc4)nc4nc(N)ccn34)n2)cc1",
    "Label value": "condition met"
  },
  {
    "Smiles repr": "CSc1nccc(-c2c(-c3cccc(C(F)(F)F)c3)nc3nc(N)ccn23)n1",
    "Label value": "condition met"
  }
]

Exercise: Is IC50 strictly under 30 nM for the entry `Nc1ccn2c(-c3ccnc(NCc4ccccc4)c3)c(-c3cccc(C(F)(F)F)c3)nc2n1` ?
Solution: condition met

Exercise: Next compound: `Nc1ccn2c(-c3ccncc3)c(-c3ccc(F)cc3)nc2n1`
Solution: condition not met

Exercise: Next compound: `Nc1ccn2c(-c3ccncn3)c(-c3cccc(C(F)(F)F)c3)nc2n1`
Solution: condition not met

* * *

Recorded pIC50 values for a group of compounds are listed next.
Biological target: MAPK14 (human)
Assay: Inhibition of TNF-alpha Release from PBMC
pIC50 is a log-scale quantity: -log10 of the concentration expressed in molar.

[
  {
    "Smiles repr": "C[C@H](Nc1nccc(-c2c(-c3cccc(C(F)(F)F)c3)nc3nc(N)ccn23)n1)c1ccccc1",
    "pIC50": 9.30
  }
]

Exercise: Which pIC50 value is on record for `CSc1nccc(-c2c(-c3ccc(F)cc3)nc3nc(N)ccn23)n1` ?
Solution: 7.43

Exercise: Next compound: `CSc1nccc(-c2c(-c3cccc(F)c3)nc3nc(N)ccn23)n1`
Solution: 8.00

Exercise: Next compound: `CS(=O)(=O)c1nccc(-c2c(-c3cccc(C(F)(F)F)c3)nc3nc(N)ccn23)n1`
Solution: 6.28

Exercise: Next compound: `Nc1ccn2c(-c3ccncc3)c(-c3cccc(C(F)(F)F)c3)nc2n1`
Solution: 7.46

Exercise: Next compound: `Nc1ccn2c(-c3ccncc3)c(-c3ccc(F)c(Cl)c3)nc2n1`
Solution: 7.68

Exercise: Next compound: `Nc1ccn2c(-c3ccncc3)c(-c3ccccc3)nc2n1`
Solution: 7.26

Exercise: Next compound: `Nc1ccn2c(-c3ccnc(N4CCCCC4)n3)c(-c3ccccc3)nc2n1`
Solution: 8.10

Exercise: Next compound: `Nc1ccn2c(-c3ccncc3)c(-c3cccc(Cl)c3)nc2n1`
Solution: 6.79

Exercise: Next compound: `Nc1ccn2c(-c3ccncn3)c(-c3ccc(F)cc3)nc2n1`
Solution: 6.70
